# IC50 against Serine/threonine-protein kinase Chk1 (Homo sapiens, UniProt O14757), merged from multiple literature sources
# Sequence (O14757 whole entry): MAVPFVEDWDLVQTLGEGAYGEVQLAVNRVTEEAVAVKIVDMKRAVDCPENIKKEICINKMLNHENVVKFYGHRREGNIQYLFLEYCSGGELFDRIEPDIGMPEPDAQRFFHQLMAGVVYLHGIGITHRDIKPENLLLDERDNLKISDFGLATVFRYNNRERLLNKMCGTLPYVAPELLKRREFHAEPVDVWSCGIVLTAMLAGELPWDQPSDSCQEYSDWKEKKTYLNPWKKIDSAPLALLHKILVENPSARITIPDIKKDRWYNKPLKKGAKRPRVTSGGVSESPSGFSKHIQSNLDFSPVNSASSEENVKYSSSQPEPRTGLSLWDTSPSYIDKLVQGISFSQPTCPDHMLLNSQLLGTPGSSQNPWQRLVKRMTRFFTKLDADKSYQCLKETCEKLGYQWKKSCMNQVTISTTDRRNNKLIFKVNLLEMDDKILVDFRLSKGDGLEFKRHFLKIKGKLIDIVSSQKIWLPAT
Reply with just the number (in µM).

## Input May I ask what IC50 has been recorded for C[C@@H]1NCCC[C@@H]1Nc1ncc(C(N)=O)c2sc(-c3ccccc3)cc12 ?
## Output 0.069

## Input May I ask what IC50 has been recorded for O=C1NC(=O)c2c1c1c3ccccc3[nH]c1c1cccn21 ?
## Output 0.024

## Input May I ask what IC50 has been recorded for CC(C)(O)CC(=O)N1CCc2cc(Nc3ncc(C(F)(F)F)c(NCCN)n3)ccc2C1 ?
## Output 0.135

## Input May I ask what IC50 has been recorded for O=C(NCC(F)(F)F)c1cncc(-c2cnc(Nc3cc(N4CCOCC4)ccn3)s2)c1 ?
## Output 0.0016

## Input May I ask what IC50 has been recorded for NC(=O)c1cnc(N[C@H]2CCCNC2)c2cc(-c3cnn(Cc4ccccc4)c3)sc12 ?
## Output 0.014

## Input May I ask what IC50 has been recorded for Cc1ccc(-c2cnc(Nc3cc(N4CCNCC4)ccn3)s2)cn1 ?
## Output 0.037

## Input May I ask what IC50 has been recorded for N#Cc1ccc(Nc2ncc(C(F)(F)F)c(NCC3CCNCC3)n2)cn1 ?
## Output 0.0655
